The origin of these recorded values is the supplement of paper PMC8728848.

# ASSAYED SYSTEM: GlcNAc(b1-3)Gal(b1-4)GlcNAc(b1-2)[GlcNAc(b1-3)Gal(b1-4)GlcNAc(b1-6)]Man(a1-6)[GlcNAc(b1-3)Gal(b1-4)GlcNAc(b1-2)Man(a1-3)]Man(b1-4)GlcNAc(b1-4)GlcNAc
# TEST SUMMARY: glycan array binding signal (z-score within array); higher = stronger binding
# EXPERIMENTAL CONTEXT: glycan notation: IUPAC condensed, linker removed
Only a selection was taken, and the strongest signals are over-represented in it overall.
MEASURED METRIC: glycan array binding signal (z-score)
Form: value (number only, do not type unit).

Task: glycan array binding signal (z-score) lookup needed for Pwp1 (Candida glabrata) (protein) MGSSHHHHHHSSGLVPRGSHMASANPISITNVCQFPDNWARTAGFQATTVRLGLTIASNTYKELLNYPGLFNFATQKATVTQPNFSISGFPFFTGLYGLTVWPINLLVELQGYFVPPESGNYTFTLQGSDDAAILFFANPSTFACGSQNDWPQPREADITVTDTLVPSRTLYLVKGVAYPIRIAYYNGSGDGKLNVSFKDPSGTTHTDWKGYVWQYSNTCSTCTYT , thanks.
Result: 0.839

Task: Check GST Gap3 (Streptococcus parasanguinis) (protein) MTKQLISEIYWNEIRKGENYLYGSQIKFQEDLVNFYNPQLASGKPIVTFKSRTNYQGDRHSPDLPILIQGNRYLLEYQIDAVPANSFFLQLDFFNRQAEQIESIVLRNSGESFIFPKDTFTYTLTLMSAGCQSVTYQKFMIYDINDEEKKNHIVENRYLRELLPKDLDLVKNLIEYI too.
Result: 3.45

Task: Check FliC (Clostridium difficile) (protein) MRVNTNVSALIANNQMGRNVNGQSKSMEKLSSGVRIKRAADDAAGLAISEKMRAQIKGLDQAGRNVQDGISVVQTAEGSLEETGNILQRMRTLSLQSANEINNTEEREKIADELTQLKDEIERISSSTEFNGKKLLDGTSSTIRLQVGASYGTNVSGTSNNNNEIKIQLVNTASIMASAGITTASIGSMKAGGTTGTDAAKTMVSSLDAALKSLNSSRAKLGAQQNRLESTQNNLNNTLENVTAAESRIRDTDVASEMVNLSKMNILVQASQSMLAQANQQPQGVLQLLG too.
Result: 3
